pIC50: −log10 of the molar value.
Literature roundup of Tyrosine-protein kinase ABL1 (Homo sapiens, UniProt P00519) data, read-out pIC50.

compound | pIC50
Cc1cn(-c2cc(NC(=O)c3ccc(C)c(C#Cc4cn(C)c5ncnc(N)c45)c3)cc(C(F)(F)F)c2)cn1 | ≥ 8.30
Cc1c(NC(=O)Nc2ccc(Oc3ccnc(-c4cnn(C)c4)c3)cc2F)cnn1C(C)C | > 6.00
Cc1cc(Nc2nc(NC3CC3)c3c(S(C)(=O)=O)n[nH]c3n2)ccc1N1CCOCC1 | ≥ 7.30
N[C@H]1CC[C@@H](Oc2nc(Nc3ccc(N4CCOCC4)cc3)nc3[nH]ncc23)CC1 | ≥ 8.00
Cc1ccc(C(=O)Nc2ccc(CN3CCN(C)CC3)c(C(F)(F)F)c2)cc1C#Cc1cn([C@H]2CC[C@H](O)CC2)c2ncnc(N)c12 | ≥ 8.30
CCSc1n[nH]c2nc(Nc3ccc(N4CCOCC4)cc3)nc(NCCCCN)c12 | ≥ 7.30
O=C(c1cc(O)ccc1F)c1c[nH]c2nccc(Cl)c12 | ≥ 5.00
Cc1ccc(C(=O)Nc2ccc(CN3CCN(C)CC3)c(C(F)(F)F)c2)cc1C#Cc1cn(C(C)C)c2ncnc(N)c12 | ≥ 8.30
CC(=O)Nc1cccc(-c2cnc3[nH]cc(C(=O)c4cc(O)ccc4F)c3c2)c1 | ≥ 5.00
Cc1ccc(NC(=O)c2ccc(C)c(C(F)(F)F)c2)cc1C#Cc1cn(C2CCCC2)c2ncnc(N)c12 | 7.30 to 8.30
CSc1n[nH]c2nc(Nc3ccc(N4CCOCC4)cc3)nc(Nc3ccc4cn[nH]c4c3)c12 | ≥ 7.30
COc1cccc(Cc2c[nH]c3ncc(-c4cccs4)cc23)c1 | ≥ 5.00
COc1ccc(F)c(C(=O)c2c[nH]c3ncc(-c4cccs4)cc23)c1 | ≥ 5.00
Cc1ncc(C(F)(F)F)cc1NC(=O)Nc1ccc(Oc2ccnc(-c3cnn(C)c3)c2)cc1F | > 7.00
CC1CN(C(=O)c2ccc(Nc3nc(NC4CC4)c4c(S(C)(=O)=O)n[nH]c4n3)cc2)CC(C)O1 (stereo not shown) | ≥ 7.30
COCCn1cc(Nc2nccn3c(C#Cc4cc(NC(=O)c5cc(C(C)(C)C)on5)ccc4C)cnc23)cn1 | 8.57
CCn1cc(C#Cc2cc(C(=O)Nc3cccc(C(F)(F)F)c3)ccc2C)c2c(N)ncnc21 | ≥ 8.30
Cn1cc(-c2cc(Oc3ccc(NC(=O)Nc4cncc(C(F)(F)F)c4)cc3)ccn2)cn1 | > 7.00
COCCOCCOCCOCCOCCNC(=O)OCCN1CCN(c2cc(Nc3ncc(C(=O)Nc4c(C)cccc4Cl)s3)nc(C)n2)CC1 | 9.52
CSc1n[nH]c2nc(Nc3ccc(N4CCOCC4)cc3)nc(NCCc3c[nH]cn3)c12 | ≥ 8.00
O=C(c1ccccc1F)c1c[nH]c2ncc(-c3ccsc3)cc12 | ≥ 5.00
O=C(c1cccc(O)c1)c1c[nH]c2ncc(-c3cc(F)cc(F)c3)cc12 | ≥ 5.00
O=C(c1cc(O)ccc1F)c1c[nH]c2ncc(-c3cccs3)cc12 | ≥ 5.00
Cc1ccc(C(=O)Nc2ccc(CN3CCN(C)CC3)c(C(F)(F)F)c2)cc1C#Cc1nnc2cc(C(=O)O)ccn12 | > 7.70
CSc1n[nH]c2nc(Nc3ccc(N4CCOCC4)cc3)nc(N[C@H]3CC[C@@H](N)CC3)c12 | ≥ 8.00
